# target: mouse ACVR2A (mouse, UniProt P27038 20-135, limits assumed); also: test concentration or dose not given here
# Sequence (P27038 20-135 limits assumed): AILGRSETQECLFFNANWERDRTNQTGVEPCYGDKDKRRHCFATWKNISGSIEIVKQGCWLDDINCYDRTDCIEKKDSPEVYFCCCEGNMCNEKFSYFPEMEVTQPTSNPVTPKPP
# assay_protocol: ELISA
Reported values of optical density for individual entries
Enter your answer as a number in OD; do not include the unit.

Check out these entries, answers already filled in.
binder	optical density / OD
374_A08 (antibody, V domains shown, VH and VL only) VH: EVQLLESGGGLVQPGGSLRLSCAASGFTFDSYSMNWVRQAPGKGLEWVSNINYNSGYTSYADSVKGRFTISRDNSKNTLYLQMNSLRAEDTAVYYCARSATWHDTHLDYWGQGTLVTVSS VL: DIQMTQSPSSLSASVGDRVTITCRASQSIVTYLNWYQQKPGKAPKLLIYAATSLASGVPSRFSGSGSGTDFTLTISSLQPEDFATYYCQQSYDLPLTFGGGTKVEIK	3.67
366_E03 (antibody, V domains shown, VH and VL only) VH: EVQLLESGGGLVQPGGSLRLSCAASGFTFDSYGMNWVRQAPGKGLEWVSNINYNGGYKSYADSVKGRFTISRDNSKNTLYLQMNSLRAEDTAVYYCARSATWHDTHLDYWGQGTLVTVSS VL: DIQMTQSPSSLSASVGDRVTITCRASQSILTYLNWYQQKPGKAPKLVIYAATSRHSGVPSRFSGSGSGTDFTLTISSLQPEDFATYYCQQSYSNPLTFGGGTKVEIK	2.72
371_B10 (antibody, V domains shown, VH and VL only) VH: EVQLLESGGGLVQPGGSLRLSCAASGFTFDSYSMNWVRQAPGKGLEWVSNINYNGGYTGYADSVKGRFTISRDNSKNTLYLQMNSLRAEDTAVYYCARSATWHDTHLDYWGQGTLVTVSS VL: DIQMTQSPSSLSASVGDRVTITCRASQSIVSYVNWYQQKPGKAPKLLIYAATSRASGVPSRFSGSGSGTDFTLTISSLQPEDFATYYCQQSYDLPLTFGGGTKVEIK	3.36
373_E08 (antibody, V domains shown, VH and VL only) VH: EVQLLESGGGLVQPGGSLRLSCAASGFTFDSYGMNWVRQAPGKGLEWVSGINYNSGYTSYADSVKGRFTISRDNSKNTLYLQMNSLRAEDTAVYYCARSATWHDTHLDYWGQGTLVTVSS VL: DIQMTQSPSSLSASVGDRVTITCRASQSIVSYVNWYQQKPGKAPKLLIYAVTSRASGVPSRFSGSGSGTDFTLTISSLQPEDFATYYCQQSYESPLTFGGGTKVEIK	3.23
369_E09 (antibody, V domains shown, VH and VL only) VH: EVQLLESGGGLVQPGGSLRLSCAASGFTFDSYSMNWVRQAPGKGLEWVSNINYNSGYKGYADSVKGRFTISRDNSKNTLYLQMNSLRAEDTAVYYCARSATWHDTHLDYWGQGTLVTVSS VL: DIQMTQSPSSLSASVGDRVTITCRASQSILSYLNWYQQKPGKAPKLVIYAATSRASGVPSRFSGSGSGTDFTLTISSLQPEDFATYYCQQSYDLPLTFGGGTKVEIK	3.77

Prompt line: GET /values?readout=optical density&item= 374_A03 (antibody, V domains shown, VH and VL only) VH: EVQLLESGGGLVQPGGSLRLSCAASGFTFDSYSMNWVRQAPGKGLEWVSNINYNGGYTSYADSVKGRFTISRDNSKNTLYLQMNSLRAEDTAVYYCARSATWHDTHLDYWGQGTLVTVSS VL: DIQMTQSPSSLSASVGDRVTITCRASQSILTYLNWYQQKPGKAPKLLIYAATSRASGVPSRFSGSGSGTDFTLTISSLQPEDFATYYCQQSYDNPLTFGGGTKVEIK
Response line: 3.71

Prompt line: GET /values?readout=optical density&item= 374_E04 (antibody, V domains shown, VH and VL only) VH: EVQLLESGGGLVQPGGSLRLSCAASGFTFSSYSMNWVRQAPGKGLEWVSGINYNSGYKSYADSVKGRFTISRDNSKNTLYLQMNSLRAEDTAVYYCARSATWHDTHLDYWGQGTLVTVSS VL: DIQMTQSPSSLSASVGDRVTITCRASQSILSYLNWYQQKPGKAPKLLIYAVTSRASGVPSRFSGSGSGTDFTLTISSLQPEDFATYYCQQSYNNPLTFGGGTKVEIK
Response line: 3.72

Prompt line: GET /values?readout=optical density&item= 366_C07 (antibody, V domains shown, VH and VL only) VH: EVQLLESGGGLVQPGGSLRLSCAASGFTFSSYSMNWVRQAPGKGLEWVSNINYNGGYTSYADSVKGRFTISRDNSKNTLYLQMNSLRAEDTAVYYCARSATWHDTHLDYWGQGTLVTVSS VL: DIQMTQSPSSLSASVGDRVTITCRASQSILTYVNWYQQKPGKAPKLLIYAATSRASGVPSRFSGSGSGTDFTLTISSLQPEDFATYYCQQSYNSPLTFGGGTKVEIK
Response line: 3.06

Prompt line: GET /values?readout=optical density&item= 375_G12 (antibody, V domains shown, VH and VL only) VH: EVQLLESGGGLVQPGGSLRLSCAASGFTFDSYGMHWVRQAPGKGLEWVSSINYNGGYTSYADSVKGRFTISRDNSKNTLYLQMNSLRAEDTAVYYCARSATWHDTHLDYWGQGTLVTVSS VL: DIQMTQSPSSLSASVGDRVTITCRASQSIVSYVNWYQQKPGKAPKLLIYAATSRHSGVPSRFSGSGSGTDFTLTISSLQPEDFATYYCQQSYDTPLTFGGGTKVEIK
Response line: 3.29

Prompt line: GET /values?readout=optical density&item= 365_A02 (antibody, V domains shown, VH and VL only) VH: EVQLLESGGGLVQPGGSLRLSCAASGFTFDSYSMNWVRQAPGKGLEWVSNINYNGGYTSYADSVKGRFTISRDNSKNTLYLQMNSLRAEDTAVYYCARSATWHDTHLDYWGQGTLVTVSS VL: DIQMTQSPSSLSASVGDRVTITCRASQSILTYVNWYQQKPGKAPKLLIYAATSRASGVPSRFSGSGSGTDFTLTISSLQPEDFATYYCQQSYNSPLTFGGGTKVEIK
Response line: 2.96
